Entries and their measured residual activity follow.
Tested on: PRKCQ (human), Q04759 [P330L]
Sequence (Q04759 whole entry P330L, looked up): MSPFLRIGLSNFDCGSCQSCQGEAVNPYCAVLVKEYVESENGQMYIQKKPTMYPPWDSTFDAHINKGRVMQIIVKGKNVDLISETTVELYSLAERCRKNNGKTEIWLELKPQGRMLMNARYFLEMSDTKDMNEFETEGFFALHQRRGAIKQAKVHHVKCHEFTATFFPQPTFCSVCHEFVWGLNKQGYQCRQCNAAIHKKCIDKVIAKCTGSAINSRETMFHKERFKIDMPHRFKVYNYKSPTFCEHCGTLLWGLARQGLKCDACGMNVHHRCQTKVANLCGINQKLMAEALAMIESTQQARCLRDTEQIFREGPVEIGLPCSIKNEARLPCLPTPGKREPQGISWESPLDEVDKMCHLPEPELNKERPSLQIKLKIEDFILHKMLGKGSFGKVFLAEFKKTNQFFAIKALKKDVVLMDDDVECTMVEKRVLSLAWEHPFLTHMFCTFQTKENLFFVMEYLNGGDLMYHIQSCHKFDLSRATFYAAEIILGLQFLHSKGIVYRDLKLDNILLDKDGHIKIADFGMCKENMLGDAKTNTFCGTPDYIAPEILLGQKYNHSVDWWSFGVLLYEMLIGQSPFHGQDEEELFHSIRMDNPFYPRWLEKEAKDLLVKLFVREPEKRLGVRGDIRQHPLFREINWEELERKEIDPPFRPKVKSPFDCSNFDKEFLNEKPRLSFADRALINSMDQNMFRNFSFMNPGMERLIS
Test: radiometric filter-binding kinase assay, Kinase HotSpot
Conditions: compound 0.5 µM; ATP 10 µM
Write the number in % without appending the unit.

{"compound": "O=C1Nc2cc(Br)ccc2/C1=C1/Nc2ccccc2/C1=N\\O", "residual activity (%)": 105}
{"compound": "COc1ccc2c(c1)c(C1=C(c3c[nH]c4ccccc34)C(=O)NC1=O)cn2CCCN(C)C", "residual activity (%)": 4.5}
{"compound": "COc1cc2nccc(Oc3ccc(NC(=S)NC(=O)c4ccccc4C)cc3)c2cc1OC", "residual activity (%)": 107}
{"compound": "CCc1nc(-c2ccc(OC)cc2)[nH]c1-c1ccncc1", "residual activity (%)": 121}
{"compound": "O=C(CCCc1ccc(-c2ccccc2F)cc1)Nc1ccc(O)cc1", "residual activity (%)": 107}

Record summary for Clc1ccc(Nc2nnc(Cc3ccncc3)c3ccccc23)cc1 : reported residual activity = 73.5

Per the record, Oc1cccc(-c2nc(N3CCOCC3)c3oc4ncccc4c3n2)c1 has residual activity of 105

* * *

Target: SLK (human) (UniProt Q9H2G2)
Assay: radiometric filter-binding kinase assay, Kinase HotSpot
Settings: compound 0.5 µM; ATP 10 µM
quantity.kind: residual activity (%)
A number alone suffices; assume %.

{"chemical.structure": "CN(C)S(=O)(=O)c1ccc2c(c1)/C(=C/c1cc3c([nH]1)CCCC3)C(=O)N2", "quantity.kind": "residual activity", "experimental.result": 23.4}
{"chemical.structure": "COc1ccc(Cl)cc1NC(=O)Nc1cc(C)nc2ccccc12", "quantity.kind": "residual activity", "experimental.result": 98.8}
{"chemical.structure": "O=C(c1cc2cc(O)ccc2[nH]1)c1cc2cc(O)ccc2[nH]1", "quantity.kind": "residual activity", "experimental.result": 78.6}
{"chemical.structure": "COc1ccc2c(c1)c(C1=C(c3c[nH]c4ccccc34)C(=O)NC1=O)cn2CCCN(C)C", "quantity.kind": "residual activity", "experimental.result": 69.4}
{"chemical.structure": "Cc1cccc(-c2nc(C(C)(C)C)[nH]c2-c2ccc3c(c2)OCO3)n1", "quantity.kind": "residual activity", "experimental.result": 108}
{"chemical.structure": "O=C1NC(=O)c2c1c1c3ccccc3[nH]c1n1cncc21", "quantity.kind": "residual activity", "experimental.result": 87.8}
{"chemical.structure": "O=C1Nc2ccc(Br)cc2/C1=C\\c1cc2c([nH]1)CCCC2", "quantity.kind": "residual activity", "experimental.result": 73.4}
{"chemical.structure": "CN(C)c1ccc(/C=C2\\C(=O)Nc3ccccc32)cc1", "quantity.kind": "residual activity", "experimental.result": 103}

Lab note: Cc1nc(-c2ccccc2)c(-c2ccncc2)o1 gave residual activity of 101

Data point: c1ccc2c(-c3ccncc3)c[nH]c2c1 ; residual activity = 103

residual activity measured on C[C@@H]1CCN(C(=O)CC#N)C[C@@H]1N(C)c1ncnc2[nH]ccc12 = 89.2

Lab note: measured residual activity of COc1cc2ncnc(Nc3ccc(OCc4ccccc4)cc3)c2cc1OC was 76.4

According to the records, this compound COc1ccc(C(=O)Nc2sc3c(c2C(N)=O)CCCC3)cc1OC displays residual activity of 92.5

Value of residual activity reported for the compound Cn1c2ccccc2c2c3c(c4c5ccccc5n(CCC#N)c4c21)CNC3=O is 34.1

* * *

Readings of residual activity for the listed compounds
Molecular target: MYO3B (human)
Test: radiometric filter-binding kinase assay, Kinase HotSpot
Settings: compound 0.5 µM; ATP 10 µM
Please respond with the number in % and leave the unit unwritten.

For orientation, consider the following solved cases.
{"chemical.structure": "N#Cc1c[nH]c2c[nH]/c(=N\\Cc3cccnc3)cc2/c1=N\\c1ccc(F)c(Cl)c1", "residual activity [%]": 87.9}
{"chemical.structure": "C[C@@H]1CCN(C(=O)CC#N)C[C@@H]1N(C)c1ncnc2[nH]ccc12", "residual activity [%]": 89.3}

Param item: N#C/C(=C\c1ccc(O)c(O)c1)C(=O)NCc1ccccc1 ; param system: MYO3B (human); output residual activity: 88.3

Observed residual activity on MYO3B (human), entry COc1ccc(S(=O)(=O)N(CCO)c2ccccc2CN(C)C/C=C/c2ccc(Cl)cc2)cc1 , equals 90.2

Entry O=C1c2ccccc2-c2nc3nnnn3nc21 , tested on MYO3B (human), has a reported residual activity of 88.4

# residual activity measured on MYO3B (human) for item COc1ccc2c(c1)/C(=C/c1cnc[nH]1)C(O)=N2 = 88

* * *

Target: PLK1 (human) (UniProt P53350)
Sequence (P53350 whole entry, looked up): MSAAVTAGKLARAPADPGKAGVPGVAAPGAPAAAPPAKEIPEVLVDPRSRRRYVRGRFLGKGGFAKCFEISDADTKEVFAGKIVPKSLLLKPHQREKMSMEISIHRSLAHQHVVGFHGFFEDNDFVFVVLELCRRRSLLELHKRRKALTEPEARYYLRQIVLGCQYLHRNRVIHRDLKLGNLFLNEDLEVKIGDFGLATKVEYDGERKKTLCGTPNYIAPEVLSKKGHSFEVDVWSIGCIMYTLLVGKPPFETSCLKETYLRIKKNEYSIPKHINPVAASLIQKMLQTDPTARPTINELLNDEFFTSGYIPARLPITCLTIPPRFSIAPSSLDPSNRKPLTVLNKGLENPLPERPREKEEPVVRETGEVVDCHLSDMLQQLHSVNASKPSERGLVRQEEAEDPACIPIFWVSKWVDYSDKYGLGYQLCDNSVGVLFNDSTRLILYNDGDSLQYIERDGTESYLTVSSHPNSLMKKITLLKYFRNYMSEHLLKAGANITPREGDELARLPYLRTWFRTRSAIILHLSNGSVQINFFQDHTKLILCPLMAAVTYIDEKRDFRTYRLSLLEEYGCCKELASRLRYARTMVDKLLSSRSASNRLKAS
Assay: radiometric filter-binding kinase assay, Kinase HotSpot
Conditions: compound 0.5 µM; ATP 10 µM
quantity.kind: residual activity (%)
Give a bare numeral; the unit % is implied.

The measured residual activity that N#Cc1c[nH]c2c[nH]/c(=N\Cc3cccnc3)cc2/c1=N\c1ccc(F)c(Cl)c1 showed for PLK1 (human) (UniProt P53350) is 92.6

Form field residual activity for item COc1ccc2c(c1)/C(=C/c1cnc[nH]1)C(O)=N2 on PLK1 (human) (UniProt P53350): 103

Summary: O=C1Nc2ccc(Br)cc2/C1=C\c1cc2c([nH]1)CCCC2 , PLK1 (human) (UniProt P53350), residual activity = 102

* * *

Target: IRAK4 (human)
Test: radiometric filter-binding kinase assay, Kinase HotSpot
Conditions: compound 0.5 µM; ATP 10 µM
quantity.kind: residual activity (%)
Reply with just the number (in %).

{"chemical.structure": "O=C1NC(=O)c2c1c1c3ccccc3[nH]c1n1cncc21", "residual activity, %": 84.8}

The observed residual activity for Fc1ccc(-c2nc3n(c2-c2ccncc2)CCS3)cc1 when tested with IRAK4 (human) stands at 109

For COc1ccc(S(=O)(=O)N(CCO)c2ccccc2CN(C)C/C=C/c2ccc(Cl)cc2)cc1 on IRAK4 (human), measured residual activity was 97.2

Lab entry: IRAK4 (human) assay, compound Cc1cccc(-c2nc(C(C)(C)C)[nH]c2-c2ccc3c(c2)OCO3)n1 , residual activity = 86.8

Item: COc1ccc2c(c1)c(C1=C(c3c[nH]c4ccccc34)C(=O)NC1=O)cn2CCCN(C)C | System: IRAK4 (human) | residual activity: 91.2

Per the reported IRAK4 (human) data, Cc1nc(-c2ccccc2)c(-c2ccncc2)o1 has residual activity of 107

Item c1ccc2c(-c3ccncc3)c[nH]c2c1 was tested on IRAK4 (human); the reported residual activity is 109

The compound NC(=O)c1cccc(-c2cc(Nc3ccc(OC(F)(F)F)cc3)ncn2)c1 , when measured on IRAK4 (human), yielded residual activity of 159

Reported IRAK4 (human) residual activity for item COc1ccc(Cl)cc1NC(=O)Nc1cc(C)nc2ccccc12 was 99.9

Tested on IRAK4 (human): Ic1cccc(CSc2nnc(-c3ccncc3)o2)c1 . Observed residual activity: 105

* * *

Overview of reported residual activity across a group of compounds:
Target: CSF1R (human)
Test: radiometric filter-binding kinase assay, Kinase HotSpot
Settings: compound 0.5 µM; ATP 10 µM
Respond numerically; units are % and should not be typed.

The cases that follow already have their residual activity on record.
{"chemical.structure": "CN(C)c1ccc(/C=C2\\C(=O)Nc3ccccc32)cc1", "unit.name": "%", "residual activity": 77.5}
{"chemical.structure": "COc1cc(Nc2c(C#N)cnc3cc(OCCCN4CCN(C)CC4)c(OC)cc23)c(Cl)cc1Cl", "unit.name": "%", "residual activity": 43.1}

Let us examine a further case.
Value of residual activity reported for the compound COc1cc2ncnc(Nc3ccc(Oc4ccccc4)cc3)c2cc1OC is 100

* * *

Biological target: WNK2 (human) (UniProt Q9Y3S1)
Sequence (Q9Y3S1 whole entry, looked up): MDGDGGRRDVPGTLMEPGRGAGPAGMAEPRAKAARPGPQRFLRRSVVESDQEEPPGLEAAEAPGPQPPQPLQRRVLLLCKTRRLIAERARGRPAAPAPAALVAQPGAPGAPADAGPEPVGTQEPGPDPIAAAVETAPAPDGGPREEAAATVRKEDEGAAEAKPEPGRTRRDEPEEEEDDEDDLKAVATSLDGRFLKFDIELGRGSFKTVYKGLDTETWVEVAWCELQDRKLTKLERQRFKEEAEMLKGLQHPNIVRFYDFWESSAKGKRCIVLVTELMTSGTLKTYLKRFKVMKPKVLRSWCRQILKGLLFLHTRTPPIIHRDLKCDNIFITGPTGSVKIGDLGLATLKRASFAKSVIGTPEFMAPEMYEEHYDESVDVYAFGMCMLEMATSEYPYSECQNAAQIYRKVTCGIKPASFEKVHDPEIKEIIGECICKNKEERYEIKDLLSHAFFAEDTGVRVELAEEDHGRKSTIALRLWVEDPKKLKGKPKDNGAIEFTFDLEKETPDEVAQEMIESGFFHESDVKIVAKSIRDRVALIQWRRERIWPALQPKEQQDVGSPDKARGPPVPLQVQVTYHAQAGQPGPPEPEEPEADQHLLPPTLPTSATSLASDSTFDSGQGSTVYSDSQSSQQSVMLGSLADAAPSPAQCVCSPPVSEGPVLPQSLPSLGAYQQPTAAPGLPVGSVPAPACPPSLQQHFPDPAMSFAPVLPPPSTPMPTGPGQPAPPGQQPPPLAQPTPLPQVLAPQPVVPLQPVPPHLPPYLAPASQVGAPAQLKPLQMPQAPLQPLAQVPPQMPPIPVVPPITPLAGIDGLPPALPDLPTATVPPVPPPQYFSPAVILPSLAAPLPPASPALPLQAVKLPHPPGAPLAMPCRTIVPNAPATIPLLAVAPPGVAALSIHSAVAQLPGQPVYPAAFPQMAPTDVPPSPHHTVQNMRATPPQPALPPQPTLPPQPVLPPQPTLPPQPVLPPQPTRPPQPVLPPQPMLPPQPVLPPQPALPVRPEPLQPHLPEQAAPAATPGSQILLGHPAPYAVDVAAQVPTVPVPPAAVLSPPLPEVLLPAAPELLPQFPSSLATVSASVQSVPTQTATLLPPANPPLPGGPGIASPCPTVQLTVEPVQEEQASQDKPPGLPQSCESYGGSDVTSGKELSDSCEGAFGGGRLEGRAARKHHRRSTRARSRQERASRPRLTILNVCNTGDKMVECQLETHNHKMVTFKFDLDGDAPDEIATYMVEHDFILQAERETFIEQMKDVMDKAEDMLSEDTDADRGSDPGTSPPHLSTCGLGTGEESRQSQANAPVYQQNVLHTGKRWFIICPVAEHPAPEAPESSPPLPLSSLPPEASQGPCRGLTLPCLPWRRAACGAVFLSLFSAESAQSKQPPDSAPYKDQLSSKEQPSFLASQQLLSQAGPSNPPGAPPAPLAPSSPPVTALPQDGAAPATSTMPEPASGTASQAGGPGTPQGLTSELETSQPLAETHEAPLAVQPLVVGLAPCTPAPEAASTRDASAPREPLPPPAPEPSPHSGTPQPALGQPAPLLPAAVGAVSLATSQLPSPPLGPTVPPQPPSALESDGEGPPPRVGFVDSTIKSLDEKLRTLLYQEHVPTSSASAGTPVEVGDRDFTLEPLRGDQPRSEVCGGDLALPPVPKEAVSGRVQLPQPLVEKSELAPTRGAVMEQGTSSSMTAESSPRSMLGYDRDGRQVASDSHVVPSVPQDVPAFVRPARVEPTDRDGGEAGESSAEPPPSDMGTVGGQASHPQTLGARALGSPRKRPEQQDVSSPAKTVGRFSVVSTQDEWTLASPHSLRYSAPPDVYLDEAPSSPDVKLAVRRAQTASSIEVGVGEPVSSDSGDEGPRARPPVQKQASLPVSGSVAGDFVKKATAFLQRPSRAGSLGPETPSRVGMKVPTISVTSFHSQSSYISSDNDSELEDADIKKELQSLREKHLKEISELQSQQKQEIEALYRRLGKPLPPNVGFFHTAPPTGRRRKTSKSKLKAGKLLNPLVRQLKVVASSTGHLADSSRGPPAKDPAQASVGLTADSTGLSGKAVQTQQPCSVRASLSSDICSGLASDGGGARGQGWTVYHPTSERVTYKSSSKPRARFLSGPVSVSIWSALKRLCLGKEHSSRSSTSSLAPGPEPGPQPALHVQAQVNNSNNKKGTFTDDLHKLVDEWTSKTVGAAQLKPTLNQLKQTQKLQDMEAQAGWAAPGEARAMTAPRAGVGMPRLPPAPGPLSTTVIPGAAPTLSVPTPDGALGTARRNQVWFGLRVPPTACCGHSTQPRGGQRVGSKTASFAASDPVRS
Experiment: radiometric filter-binding kinase assay, Kinase HotSpot
Conditions: compound 0.5 µM; ATP 10 µM
quantity.kind: residual activity (%)
Return type: number; implicit unit %.

// below: answered compounds
{"chemical.structure": "COc1cc2ncnc(Nc3ccc(OCc4ccccc4)cc3)c2cc1OC", "system": "WNK2 (human) (UniProt Q9Y3S1)", "unit.name": "%", "experimental.result": 91.6}
{"chemical.structure": "COc1ccc2c(c1)/C(=C/c1cnc[nH]1)C(O)=N2", "system": "WNK2 (human) (UniProt Q9Y3S1)", "unit.name": "%", "experimental.result": 102}

// recorded residual activity for Cn1c2ccccc2c2c3c(c4c5ccccc5n(CCC#N)c4c21)CNC3=O : 103

Sure, the documented residual activity for CCCCc1c(-c2ccc(OC)cc2)[nH]c2nccnc12 is 112

* * *

# residual activity annotations
Target: UniProt O95747
Sequence (O95747 whole entry, looked up): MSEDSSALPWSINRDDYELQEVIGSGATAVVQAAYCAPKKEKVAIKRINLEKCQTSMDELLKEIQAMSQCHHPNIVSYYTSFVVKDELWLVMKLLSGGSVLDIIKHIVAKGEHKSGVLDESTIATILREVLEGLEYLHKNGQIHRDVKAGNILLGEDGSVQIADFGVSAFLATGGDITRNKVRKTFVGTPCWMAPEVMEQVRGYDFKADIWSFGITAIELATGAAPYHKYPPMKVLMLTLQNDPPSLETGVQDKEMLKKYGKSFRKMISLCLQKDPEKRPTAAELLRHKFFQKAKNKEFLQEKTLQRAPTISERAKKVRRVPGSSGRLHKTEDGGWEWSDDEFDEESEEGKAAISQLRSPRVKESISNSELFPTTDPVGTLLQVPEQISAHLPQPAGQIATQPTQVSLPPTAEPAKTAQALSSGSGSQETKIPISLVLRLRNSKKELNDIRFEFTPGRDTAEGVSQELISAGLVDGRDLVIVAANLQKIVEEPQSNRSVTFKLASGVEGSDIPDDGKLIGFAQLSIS
Test: radiometric filter-binding kinase assay, Kinase HotSpot
Conditions: compound 0.5 µM; ATP 10 µM
Write the number in % without appending the unit.

{"chemical.structure": "CO[C@@H]1[C@H](N(C)C(=O)c2ccccc2)C[C@H]2O[C@]1(C)n1c3ccccc3c3c4c(c5c6ccccc6n2c5c31)C(=O)NC4", "unit.name": "%", "residual activity": 98.2}

residual activity reading for O=C1c2ccccc2-c2nc3nnnn3nc21 : 83

Record c1ccc2c(-c3ccncc3)c[nH]c2c1 , field residual activity: 97.2

# residual activity (molecule: COc1ccc(S(=O)(=O)N(CCO)c2ccccc2CN(C)C/C=C/c2ccc(Cl)cc2)cc1 ) is 106

So, COc1cc2ncnc(Nc3ccc(OCc4ccccc4)cc3)c2cc1OC ? Its residual activity was 110

Per the records, this molecule ( N#Cc1c[nH]c2c[nH]/c(=N\Cc3cccnc3)cc2/c1=N\c1ccc(F)c(Cl)c1 ) has residual activity equal to 87.7

get_value(item= Cc1cccc(-c2nc(C(C)(C)C)[nH]c2-c2ccc3c(c2)OCO3)n1 , readout=residual activity) returns 103

Memo: N#C/C(=C\c1ccc(O)c(O)c1)C(=O)NCc1ccccc1 , reported residual activity: 101

// residual activity lookup, molecule = O=C1Nc2ccc(Br)cc2/C1=C\c1cc2c([nH]1)CCCC2 , result: 96.7

Note to self: residual activity recorded for Cn1c2ccccc2c2c3c(c4c5ccccc5n(CCC#N)c4c21)CNC3=O was 102

Form field residual activity, entry O=C(c1cc2cc(O)ccc2[nH]1)c1cc2cc(O)ccc2[nH]1 : 105

Field residual activity (entry CC(C)(C)c1cc(C=C(C#N)C#N)cc(Br)c1O ) reads 98
